B1: Apolipophorin-3b, P10762 (parent)
chain: MNTLLAVLMLAVAAQARPDAAGHVNIAEAVQQLNHTIVNAAHELHETLGLPTPDEALNLLTEQANAFKTKIAEVTTSLKQEAEKHQGSVAEQLNRFARNLNNSIHDAATSAQPADQLNSLQSALTNVGHQWQTSQPRPSVAQEAWAPVQSALQEAAEKTKEAAANLQNSIQSAVQKPAN

Variants of: B1
Conditions: Locusta migratoria; pH 7.4; Thermal; CD; Na2HPO4 KH2PO4 10 mM 2 mM; NaCl 127 mM; reversible: yes; structure 1LS4; whole UniProt chain shown
property-name: change of melting temperature, mutant - wild type (higher = more stable) (°C)
Output spec: scalar in °C, unitless text.

Worked cases, change of melting temperature, mutant - wild type (higher = more stable) given:
T159A : -9
T47A : 4
L33K : -16

Query variant follows.
(Q) Return reported change of melting temperature, mutant - wild type (higher = more stable). Input variant: A155K
(A) -15

All values here come from FireProtDB (doi:10.1021/bi050502v).
